Form: system (FLT3 (Homo sapiens)), quantity (IC50), values below.

Compound: COC[C@H](C)Nc1ncc2c(-c3cnn(CC(=O)N4CCOCC4)c3)cc([C@H]3CC[C@H](O)CC3)n2n1
IC50: 100 to 1000 nM
//
Compound: CCCCNc1ncc2c(-c3ccc(S(=O)(=O)N4CCOCC4)cc3)cc([C@H]3CC[C@H](O)CC3)n2n1
IC50: ≤ 100 nM
//
Compound: COC[C@H](C)Nc1ncc2c(-c3cnn(C(C)(C)C)c3)cc([C@H]3CC[C@H](O)CC3)n2n1
IC50: 1000 to 10000 nM
//
Compound: COC[C@H](C)Nc1ncc2c(-c3cc([C@H]4CC[C@H](O)CC4)n4nc(N[C@@H](C)COC)ncc34)cc([C@H]3CC[C@H](O)CC3)n2n1
IC50: 1000 to 10000 nM
//
Compound: COC[C@H](C)N(C)c1ncc2c(-c3ccnc(C)c3)cc([C@H]3CC[C@H](OC)CC3)n2n1
IC50: 1000 to 10000 nM
//
Compound: COCC(C)Nc1ncc2c(-c3cnn(Cc4ccc(=O)n(C)c4)c3)cc(C3CCC(O)CC3)n2n1 (centres unmarked)
IC50: 100 to 1000 nM
//
Compound: COC[C@H](C)Nc1ncc2c(C3=C[C@H]4CC[C@@H](C3)N4C)cc([C@H]3CC[C@H](O)CC3)n2n1
IC50: 1000 to 10000 nM
//
Compound: COC[C@H](C)Nc1ncc2c(-c3cncc(C(=O)N4CCN(C)CC4)c3)cc([C@H]3CC[C@H](O)CC3)n2n1
IC50: 1000 to 10000 nM
//
Compound: O[C@H]1CC[C@H](c2cc(-c3ccnc(N4CCOCC4)c3)c3cnc(NCCC(F)(F)F)nn32)CC1
IC50: ≤ 100 nM
//
Compound: COC[C@H](C)Nc1ncc2c(-c3cnn(C(C)(C)C(=O)N4CCC(C)(C#N)CC4)c3)cc([C@H]3CC[C@H](O)CC3)n2n1
IC50: 100 to 1000 nM
//
Compound: CC[C@H](C)Nc1ncc2c(C3=CCNCC3)cc([C@H]3CC[C@H](O)CC3)n2n1
IC50: ≤ 100 nM
//
Compound: CC(=O)N1CCN(Cc2ccc(-c3cc([C@H]4CC[C@H](O)CC4)n4nc(N[C@@H](C)COC(F)F)ncc34)cc2)CC1
IC50: ≤ 100 nM
//
Compound: Cc1ccc(-c2cc([C@H]3CC[C@H](O)CC3)n3nc(N[C@@H](C)COC(F)F)ncc23)cn1
IC50: ≤ 100 nM
//
Compound: C[C@@H](CC(F)(F)F)Nc1ncc2c(-c3cnn(C(C)(C)C(=O)N4CC5(COC5)C4)c3)cc([C@H]3CC[C@H](O)CC3)n2n1
IC50: ≤ 100 nM
